The reported numbers originate from patent US10829501B2.

- assay_system: ROCK2 (Homo sapiens, UniProt O75116)
- Sequence (O75116 whole entry, species assumed): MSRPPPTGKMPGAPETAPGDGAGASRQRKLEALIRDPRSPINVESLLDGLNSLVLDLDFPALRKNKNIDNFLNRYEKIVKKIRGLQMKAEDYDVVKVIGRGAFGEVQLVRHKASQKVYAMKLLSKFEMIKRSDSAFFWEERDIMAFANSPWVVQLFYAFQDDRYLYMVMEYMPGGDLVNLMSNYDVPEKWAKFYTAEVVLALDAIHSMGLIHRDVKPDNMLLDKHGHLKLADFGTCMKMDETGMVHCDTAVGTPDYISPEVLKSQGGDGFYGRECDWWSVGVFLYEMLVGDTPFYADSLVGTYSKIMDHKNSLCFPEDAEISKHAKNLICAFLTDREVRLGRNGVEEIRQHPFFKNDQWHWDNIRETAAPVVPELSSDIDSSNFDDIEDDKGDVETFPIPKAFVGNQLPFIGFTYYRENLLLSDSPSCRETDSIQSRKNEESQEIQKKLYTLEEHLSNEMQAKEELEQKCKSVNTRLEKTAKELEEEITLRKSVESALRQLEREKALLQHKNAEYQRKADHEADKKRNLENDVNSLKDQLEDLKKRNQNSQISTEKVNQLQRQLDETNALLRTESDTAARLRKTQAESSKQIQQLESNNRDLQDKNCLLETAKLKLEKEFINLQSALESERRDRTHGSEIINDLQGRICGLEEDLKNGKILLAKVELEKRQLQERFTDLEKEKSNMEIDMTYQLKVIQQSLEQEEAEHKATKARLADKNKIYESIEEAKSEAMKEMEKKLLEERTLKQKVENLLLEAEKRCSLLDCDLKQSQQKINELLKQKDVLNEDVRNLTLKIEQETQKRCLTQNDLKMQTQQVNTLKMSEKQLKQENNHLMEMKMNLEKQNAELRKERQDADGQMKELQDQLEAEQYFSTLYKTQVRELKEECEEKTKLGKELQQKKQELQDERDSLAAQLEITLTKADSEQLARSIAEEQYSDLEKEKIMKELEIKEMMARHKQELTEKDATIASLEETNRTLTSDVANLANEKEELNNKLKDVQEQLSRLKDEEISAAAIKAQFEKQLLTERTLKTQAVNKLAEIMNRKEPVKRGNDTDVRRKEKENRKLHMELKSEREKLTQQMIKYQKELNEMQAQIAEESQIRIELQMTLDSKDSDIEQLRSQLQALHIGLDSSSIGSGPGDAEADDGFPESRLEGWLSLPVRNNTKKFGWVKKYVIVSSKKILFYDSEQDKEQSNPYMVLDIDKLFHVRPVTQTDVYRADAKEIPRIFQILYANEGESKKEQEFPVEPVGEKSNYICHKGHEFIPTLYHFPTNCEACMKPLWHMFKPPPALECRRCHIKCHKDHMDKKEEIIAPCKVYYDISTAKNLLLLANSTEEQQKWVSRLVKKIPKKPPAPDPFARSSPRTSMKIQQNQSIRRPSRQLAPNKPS
- assay_explanation: ROCK2 kinase inhibition assay (LABCHIP 3000 Reader, FITC peptide substrate)
pIC50: −log10 of the molar value.
Some compounds, each annotated with its measured pIC50.

# example entries with known answers
INSERT INTO results (compound, assay_system, outcome_measure, obs_value) VALUES
  ('CC(C)(O)COc1ccc2c(C(=O)NC3CC4(C3)CC(Oc3cc(-c5cccc(C(=O)N6CCOCC6)c5)ccc3C(N)=O)C4)cnn2c1 (stereo not shown)', 'ROCK2 (Homo sapiens, UniProt O75116)', 'pIC50', '7.30 to 8.30'),
  ('CC(C)(O)COc1ccn2c(C(=O)NC3CC4(C3)CC(Oc3ncccc3C(N)=O)C4)cnc2c1 (stereo not shown)', 'ROCK2 (Homo sapiens, UniProt O75116)', 'pIC50', '7.30 to 8.30'),
  ('COc1ccc(-c2nc(C(=O)N[C@H]3CC4(C3)C[C@H](Oc3ncccc3C(N)=O)C4)cs2)cc1 (stereo partly shown)', 'ROCK2 (Homo sapiens, UniProt O75116)', 'pIC50', '5.60 to 6.60');

Please find the next compound below.
State its pIC50: NC(=O)c1cccnc1O[C@H]1CC2(C[C@H](NC(=O)c3cnc4cc(N5CCOCC5)ccn34)C2)C1 (stereo partly shown) 7.30 to 8.30

====

- assay_system: ROCK2 (Homo sapiens, UniProt O75116)
- assay_explanation: ROCK2 kinase inhibition assay (LABCHIP 3000 Reader, FITC peptide substrate)
Counter-ions that a name gives are not always drawn.
outcome_measure: IC50

# example entries with known answers
INSERT INTO assay_data (compound, outcome_measure, obs_value) VALUES
  ('NC(=O)c1cccnc1O[C@H]1CC2(C[C@H](NC(=O)c3ccc(-n4cccn4)cc3)C2)C1 (stereo partly shown)', 'IC50', '250 to 2500 nM'),
  ('NC(=O)c1ccccc1OC1CC2(CC(NC(=O)c3cnn4c(C5CC5)c(OC5CCS(=O)(=O)CC5)ccc34)C2)C1 (stereo not shown)', 'IC50', '< 5 nM'),
  ('CC(C)(O)COc1ccc2c(C(=O)NC3CC4(C3)CC(Oc3cc(-c5cccc(C(F)F)c5)ccc3C(N)=O)C4)cnn2c1 (stereo not shown)', 'IC50', '5 to 50 nM');

Fill in: IC50 on ROCK2 (Homo sapiens, UniProt O75116), entry CC(C)(O)COc1ccc2c(C(=O)NC3CC4(C3)CC(Oc3cc(-c5cccc(OCC(F)(F)F)c5)ccc3C(N)=O)C4)cnn2c1 (stereo not shown) 50 to 250 nM

Fill in: IC50 on ROCK2 (Homo sapiens, UniProt O75116), entry [H][C@]1(Oc2ncccc2C(N)=O)C[C@]2(C[C@@H](NC(=O)c3cn4ccc(OCc5ccccc5)cc4n3)C2)C1 (stereo partly shown) [Example 463, TFA Salt] 50 to 250 nM

Fill in: IC50 on ROCK2 (Homo sapiens, UniProt O75116), entry NC(=O)c1cccnc1O[C@H]1CC2(C[C@H](NC(=O)c3cnn4c(C5CC5)c(OC(CF)CF)ccc34)C2)C1 (stereo partly shown) < 5 nM

Fill in: IC50 on ROCK2 (Homo sapiens, UniProt O75116), entry NC(=O)c1cccnc1O[C@H]1CC2(C[C@H](NC(=O)c3cnn4c(C5CC5)c(OCCOCC(F)(F)F)ccc34)C2)C1 (stereo partly shown) 5 to 50 nM

====

- assay_system: ROCK2 (Homo sapiens)
- assay_explanation: ROCK2 kinase inhibition assay (LABCHIP 3000 Reader, FITC peptide substrate)
Some compounds, each annotated with its measured IC50.

State its IC50: Cn1nc(C(=O)N[C@H]2CC3(C2)C[C@H](Oc2ncccc2C(N)=O)C3)c2ccc(F)cc21 (stereo partly drawn) 5 to 50 nM

State its IC50: NC(=O)c1ccccc1O[C@H]1CC2(C[C@H](NC(=O)c3cnn4cc(OCC(F)F)ccc34)C2)C1 (stereo partly drawn) 5 to 50 nM

State its IC50: CN1CCN(CCCc2ccc(C(N)=O)c(OC3CC4(CC(NC(=O)c5cnn6c(C7CC7)c(OCC(C)(C)O)ccc56)C4)C3)c2)CC1 (stereo not drawn) 5 to 50 nM

State its IC50: CC(C)(O)COc1ccc2c(C(=O)NC3CC4(C3)CC(Oc3cc(-c5cnn(C6CCOCC6)c5)ccc3C(N)=O)C4)cnn2c1 (stereo not drawn) 5 to 50 nM

State its IC50: NC(=O)c1cccnc1O[C@H]1CC2(C[C@H](NC(=O)c3cnn4cc(CCC(F)(F)F)ccc34)C2)C1 (stereo partly drawn) 5 to 50 nM

State its IC50: COc1ccc(C(N)=O)c(O[C@H]2CC3(C[C@H](NC(=O)c4nn(CC(C)(C)O)c5ccc(F)cc45)C3)C2)n1 (stereo partly drawn) 5 to 50 nM

State its IC50: CS(=O)(=O)CCCOc1ccc2c(C(=O)N[C@H]3CC4(C3)C[C@H](Oc3ncccc3C(N)=O)C4)cnn2c1C1CC1 (stereo partly drawn) 5 to 50 nM

====

Some compounds, each annotated with its measured pIC50.
- assay_system: ROCK2 (Homo sapiens, UniProt O75116)
- assay_explanation: ROCK2 kinase inhibition assay (LABCHIP 3000 Reader, FITC peptide substrate)
pIC50: −log10 of the molar value. Structures can show the parent of a compound that is named as a salt.

INSERT INTO assay_data (compound, outcome_measure, obs_value) VALUES
  ('Cn1cccc(-c2cc(C#N)cc(C(=O)N[C@H]3CC4(C3)C[C@H](Oc3ncccc3C(N)=O)C4)c2)c1=O (stereo partly shown) [Example 194]', 'pIC50', '7.30 to 8.30'),
  ('Cc1c(C(=O)NC2CC3(C2)CC(Oc2ncccc2C(N)=O)C3)cnn1-c1ccc(C#N)c(F)c1 (stereo not shown) [Example 391]', 'pIC50', '6.60 to 7.30'),
  ('CC1(C)Cc2cccc(C(=O)N[C@H]3CC4(C3)C[C@H](Oc3ncccc3C(N)=O)C4)c2O1 (stereo partly shown) [Example 163]', 'pIC50', '5.60 to 6.60');

State its pIC50: CC(C)(O)COc1ccc2c(C(=O)N[C@H]3CC4(C3)C[C@H](Oc3ncccc3C(N)=O)C4)nn(C(C)(C)C(N)=O)c2c1 (stereo partly shown) [Example 412, TFA] 7.30 to 8.30

State its pIC50: CC(C)(O)COc1ccc2c(C(=O)NC3CC4(C3)CC(Oc3cc(-c5cccc(Cl)n5)ccc3C(N)=O)C4)cnn2c1 (stereo not shown) [Example 248] 7.30 to 8.30

State its pIC50: COCCOCCn1nc(C(=O)N[C@H]2CC3(C2)C[C@H](Oc2ncccc2C(N)=O)C3)c2ccccc21 (stereo partly shown) [Example 78] 6.60 to 7.30

State its pIC50: CC(C)(O)COc1ccc2c(C(=O)NC3CC4(C3)CC(Oc3cc(-c5cccc(COC(=O)NCCC(=O)O)c5)ccc3C(N)=O)C4)cnn2c1 (stereo not shown) [Example 249] > 8.30

====

Some compounds, each annotated with its measured pIC50.
- assay_system: ROCK2 (Homo sapiens)
- assay_explanation: ROCK2 kinase inhibition assay (LABCHIP 3000 Reader, FITC peptide substrate)
pIC50: −log10 of the molar value. Where a name gives a salt, the structure may show the parent alone.

# example entries with known answers
INSERT INTO measurements (compound, obs_value) VALUES
  ('NC(=O)c1cccnc1O[C@H]1CC2(C[C@H](NC(=O)c3cnc4cc(NCC(F)F)ccn34)C2)C1 (stereo partly shown)', '7.30 to 8.30'),
  ('N#Cc1cc(C(=O)N[C@H]2CC3(C2)C[C@H](Oc2ncccc2C(N)=O)C3)cc(-c2c[nH]nc2C(F)(F)F)c1 (stereo partly shown)', '7.30 to 8.30'),
  ('N#Cc1cccc(-c2ccc(C(=O)N[C@H]3CC4(C3)C[C@H](Oc3ncccc3C(N)=O)C4)cc2)c1 (stereo partly shown)', '6.60 to 7.30'),
  ('CC(C)(O)COc1ccc2c(C(=O)NC3CC4(C3)CC(Oc3ccc(F)cc3C(N)=O)C4)cnn2c1C1CC1 (stereo not shown)', '7.30 to 8.30'),
  ('[H][C@]1(Oc2ncccc2C(N)=O)C[C@@]2(C[C@H](NC(=O)c3cnn4c(Br)c(OCC(C)(F)F)ccc34)C2)C1 (stereo partly shown)', '7.30 to 8.30'),
  ('[H][C@]1(Oc2ncccc2C(N)=O)C[C@@]2(C[C@H](NC(=O)c3cnn(-c4ccccc4)c3C)C2)C1 (stereo partly shown) [Example 379, trifluoroacetic Acid Salt]', '6.60 to 7.30');

State its pIC50: CC(C)(O)COc1ccc2c(C(=O)NC3CC4(C3)CC(Oc3cc(-c5ccc(F)c(C(N)=O)c5)ccc3C(N)=O)C4)cnn2c1 (stereo not shown) > 8.30

====

- assay_system: ROCK2 (Homo sapiens, UniProt O75116)
- assay_explanation: ROCK2 kinase inhibition assay (LABCHIP 3000 Reader, FITC peptide substrate);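 note: rho kinase reaction read by separating phosphorylated from unphosphorylated peptide on chip, with inhibition of kinase activity computed per concentration across a dose-response series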
outcome_measure: IC50

# example entries with known answers
INSERT INTO measurements (molecule, assay_system, obs_value) VALUES
  ('NC(=O)c1cccnc1O[C@H]1CC2(C[C@H](NC(=O)c3cc(S(N)(=O)=O)c(F)cc3Cl)C2)C1 (some centres unmarked)', 'ROCK2 (Homo sapiens, UniProt O75116)', '0.05 to 0.25 µM'),
  ('CC(C)(O)COc1ccc2c(C(=O)NC3CC4(C3)CC(Oc3cc(N5CCOCC5)ccc3C(N)=O)C4)cnn2c1 (centres unmarked)', 'ROCK2 (Homo sapiens, UniProt O75116)', '0.05 to 0.25 µM'),
  ('[H][C@]1(Oc2ncccc2C(N)=O)C[C@@]2(C[C@H](NC(=O)c3cc(Br)cc(OCCC(F)(F)F)c3)C2)C1 (some centres unmarked)', 'ROCK2 (Homo sapiens, UniProt O75116)', '0.005 to 0.05 µM'),
  ('NC(=O)c1cccnc1O[C@H]1CC2(C[C@H](NC(=O)c3cnn4cc(N5CCC(F)(F)CC5)ccc34)C2)C1 (some centres unmarked)', 'ROCK2 (Homo sapiens, UniProt O75116)', '< 0.005 µM'),
  ('NC(=O)c1cccnc1O[C@H]1CC2(C[C@H](NC(=O)c3cnc4ccc(F)cn34)C2)C1 (some centres unmarked)', 'ROCK2 (Homo sapiens, UniProt O75116)', '0.05 to 0.25 µM'),
  ('CC(C)c1c(OCC(C)(C)O)ccc2c(C(=O)N[C@H]3CC4(C3)C[C@H](Oc3ncccc3C(N)=O)C4)cnn12 (some centres unmarked)', 'ROCK2 (Homo sapiens, UniProt O75116)', '0.005 to 0.05 µM'),
  ('NC(=O)c1cccnc1O[C@H]1CC2(C[C@H](NC(=O)c3cnn4cc(OCCC(F)(F)F)ccc34)C2)C1 (some centres unmarked)', 'ROCK2 (Homo sapiens, UniProt O75116)', '< 0.005 µM'),
  ('N#Cc1ccc2nc(C(=O)N[C@H]3CC4(C3)C[C@H](Oc3ncccc3C(N)=O)C4)cn2c1 (some centres unmarked)', 'ROCK2 (Homo sapiens, UniProt O75116)', '0.25 to 2.5 µM');

State its IC50: NC(=O)c1cccnc1O[C@H]1CC2(C[C@H](NC(=O)c3cnc4c(C5CC5)cccn34)C2)C1 (some centres unmarked) 0.05 to 0.25 µM

State its IC50: NC(=O)c1cccnc1OC1CC2(CC(NC(=O)c3cnn(-c4cccc(Cl)c4F)c3)C2)C1 (centres unmarked) 0.005 to 0.05 µM

State its IC50: [H][C@]1(Oc2ncccc2C(N)=O)C[C@@]2(C[C@H](NC(=O)c3cnn4c(C5CC5)c(OCC(C)(C)O)ccc34)C2)C1 (some centres unmarked) < 0.005 µM

State its IC50: CC(C)(O)COc1ccc2c(C(=O)NC3CC4(C3)CC(Oc3cc(-c5cccc(OCCCN)c5)ccc3C(N)=O)C4)cnn2c1 (centres unmarked) 0.005 to 0.05 µM

State its IC50: CC(C)(O)COc1ccc2c(C(=O)NC3CC4(C3)CC(Oc3ccccc3C(N)=O)C4)cnn2c1 (centres unmarked) 0.005 to 0.05 µM

State its IC50: NC(=O)c1cccnc1O[C@H]1CC2(C[C@H](NC(=O)c3cnn4c(C5CC5)c(OCC5CCO5)ccc34)C2)C1 (some centres unmarked) 0.005 to 0.05 µM
